This collection of values is drawn from the supplement of paper PMC6555819.

- System: LXRb homodimer (NR concentration 270 nM)
- test: PBM binding z-score (relative to random genomic background probes); higher = stronger binding; sequences stand for … in GC…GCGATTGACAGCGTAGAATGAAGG
Recorded PBM binding z-score by entry
metricName: PBM binding z-score

>  <seqString>
ACTAGTTGGTCAGGTGAGGTCACACACAATTCGG

>  <experimentalResult>
0.501

$$$$
>  <seqString>
CGTCCAAGGTCAGCAGGTCTGTGAAAGCGACGTG

>  <experimentalResult>
-0.284

$$$$
>  <seqString>
TCATATAGGTAAAAGCTGAAAGTCGGTGTGGTAA

>  <experimentalResult>
-0.24

$$$$
>  <seqString>
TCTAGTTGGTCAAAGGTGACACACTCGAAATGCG

>  <experimentalResult>
0.376

$$$$
